- tested-target: Dihydroorotate dehydrogenase (quinone), mitochondrial (Plasmodium falciparum (isolate 3D7)) (UniProt Q08210)
- Sequence (Q08210 whole entry, looked up): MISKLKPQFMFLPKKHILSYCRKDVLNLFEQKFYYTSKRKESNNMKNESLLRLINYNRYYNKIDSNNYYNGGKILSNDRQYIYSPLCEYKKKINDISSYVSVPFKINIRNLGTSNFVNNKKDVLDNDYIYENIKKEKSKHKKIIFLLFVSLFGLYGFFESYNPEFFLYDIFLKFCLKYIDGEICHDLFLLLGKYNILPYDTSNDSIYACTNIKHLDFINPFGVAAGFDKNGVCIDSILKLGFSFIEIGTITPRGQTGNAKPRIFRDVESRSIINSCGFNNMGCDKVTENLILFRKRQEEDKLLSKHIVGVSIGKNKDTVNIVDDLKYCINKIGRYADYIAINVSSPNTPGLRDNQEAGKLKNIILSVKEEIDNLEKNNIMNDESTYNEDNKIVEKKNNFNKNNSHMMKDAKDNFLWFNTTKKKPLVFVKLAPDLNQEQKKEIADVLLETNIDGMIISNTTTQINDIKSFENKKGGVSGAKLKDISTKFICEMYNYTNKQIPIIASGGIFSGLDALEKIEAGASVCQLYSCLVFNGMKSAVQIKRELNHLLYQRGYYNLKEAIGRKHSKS
- measurement-description: PfDHODH enzyme inhibitors, primary screen, biochemical, C-terminal His tag, absorbance 600 nm (AID 1175);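 note: recombinant parasite enzyme with a five histidine tag at its C terminus; test concentration not given here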
- condition-parameters: DCIP absorbance 600 nm, higher = more signal, called active from +8 up or from −8 down
# composite z-score per record follows
Please reply with the value in numeric form only.

molecule	data-value
COc1ccc(NN2C(C(O)c3ccc(F)cc3)C=CC3C(=O)N(C4CCCCC4)C(=O)C32)cc1 (stereo unspecified)	-0.328
COc1ccc([Si](C)(C)[C@H]2[C@H](CC(=O)N(CCO)Cc3ccccc3)O[C@@]3(C(=O)N(Cc4cccc(N5CCCCC5=O)c4)c4ccccc43)[C@@H]2C)cc1	-1.02
CCOC(=O)C1=CCC(c2ccncc2)N(S(=O)(=O)c2ccc(C)cc2)C1 (stereo unspecified)	-1.2
COCCOC(=O)N1C(=O)[C@@]2(c3cc(C#CCC(C(=O)OC)C(=O)OC)ccc31)[C@H](C(=O)N1CCc3cc(OC)c(OC)cc3C1)[C@H]1C(=O)O[C@H](c3ccccc3)[C@H](c3ccccc3)N1[C@@H]2c1ccccc1OCCO	-1.23
C=CCNC(=O)[C@@H]1[C@H]2C(=O)O[C@H](c3ccccc3)[C@H](c3ccccc3)N2[C@H](c2ccc(O)cc2)[C@@]12C(=O)N(C(=O)OCCOC)c1ccc(C#CCC(C(=O)OC)C(=O)OC)cc12	-2.5

**Q:** Entry CCOC(=O)C=C1C[C@@H](c2cccc([N+](=O)[O-])c2)O[C@@H](c2cccc([N+](=O)[O-])c2)O1 has what composite z-score?
**A:** 0.917

###

- Tested on: PRMT1 (protein arginine N-methyltransferase 1)
- measurement-description: PRMT1 binders on small-molecule microarrays, primary screen, biochemical, small-molecule microarray, 635 nm fluorescence (AID 1088);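 note: binding of Prmt1 protein to compounds spotted on small-molecule microarray slides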
- condition-parameters: small-molecule microarray binding, higher = more signal
test-readout: composite z-score
Please reply with the value in numeric form only.

**Q:** Entry CCCCC(=C=CC[C@@H](O)c1ccc(OCCO)cc1)CCO has what composite z-score?
**A:** 0.571

**Q:** Entry COc1cccc(C)c1NC(=O)O[C@H]1[C@H](OC(=O)Nc2ccccc2-c2ccccc2)[C@@H](OC(=O)Nc2ccccc2-c2ccccc2)[C@@H](OC)O[C@@H]1CO has what composite z-score?
**A:** 1.53

**Q:** Entry C=CCOC(=O)[C@H]1[C@@H]2C(=O)O[C@@H](c3ccccc3)[C@@H](c3ccccc3)N2[C@@H](c2ccc(OCCOC(=O)[C@@H]3C[C@@H]4C(=O)N[C@@H](Cc5ccccc5)C(=O)N4[C@@H]3c3ccc(O)cc3)cc2)[C@]12C(=O)Nc1ccc(I)cc12 has what composite z-score?
**A:** 1.34

**Q:** Entry COCCCNC(=O)[C@@]1(c2ccc([N+](=O)[O-])cc2)CC(=O)N(C2CCCCC2)[C@@H]1c1ccc(CO)cc1I has what composite z-score?
**A:** 1.54

**Q:** Entry O=C1O[C@H](c2ccccc2)[C@H](c2ccccc2)N2[C@H]1[C@@H](C(=O)O)[C@]1(C(=O)Nc3ccccc31)[C@H]2c1ccc(OCCO)cc1 has what composite z-score?
**A:** 1.53

**Q:** Entry CC(=O)NCCCC[C@@H]1NC(=O)[C@H]2C[C@@H](C(=O)NCCCCCN)[C@@H](c3ccc(O)cc3)N2C1=O has what composite z-score?
**A:** 1.07
